- System tested: Fibroblast growth factor receptor 1 (Homo sapiens) (UniProt P11362);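 further: values are reported as mean percent inhibition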
- Sequence (P11362 22-822 limits assumed): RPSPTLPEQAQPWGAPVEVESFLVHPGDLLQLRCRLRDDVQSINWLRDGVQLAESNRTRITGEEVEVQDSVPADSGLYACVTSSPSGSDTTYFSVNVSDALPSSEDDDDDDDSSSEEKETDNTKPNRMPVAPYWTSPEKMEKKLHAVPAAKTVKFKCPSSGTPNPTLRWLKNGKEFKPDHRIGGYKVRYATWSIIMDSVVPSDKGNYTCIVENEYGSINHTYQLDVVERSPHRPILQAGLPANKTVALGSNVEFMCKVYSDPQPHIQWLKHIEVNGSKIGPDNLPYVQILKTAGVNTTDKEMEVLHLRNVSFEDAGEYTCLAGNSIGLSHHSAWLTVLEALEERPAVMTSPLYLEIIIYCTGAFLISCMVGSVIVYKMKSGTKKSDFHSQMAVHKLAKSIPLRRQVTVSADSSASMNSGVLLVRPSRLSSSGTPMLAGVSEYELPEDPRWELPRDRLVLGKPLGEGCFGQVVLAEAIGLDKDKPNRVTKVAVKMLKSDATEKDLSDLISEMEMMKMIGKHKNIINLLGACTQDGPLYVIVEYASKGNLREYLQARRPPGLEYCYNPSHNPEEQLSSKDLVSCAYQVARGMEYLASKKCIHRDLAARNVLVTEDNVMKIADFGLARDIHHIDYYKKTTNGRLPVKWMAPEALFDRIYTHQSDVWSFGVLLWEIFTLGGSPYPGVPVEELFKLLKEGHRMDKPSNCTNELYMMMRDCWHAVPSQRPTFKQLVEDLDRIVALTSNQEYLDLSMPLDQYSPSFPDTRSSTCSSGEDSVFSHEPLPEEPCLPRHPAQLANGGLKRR
- Assay context: at 0.1 µM
Assay metric: inhibition (%)

Compound | Observed
CN(C)CCCNc1nccc(-c2c(-c3ccc(F)cc3)nn3cc(C(F)(F)F)ccc23)n1 | 0.95
FC(F)(F)c1cccc(Nc2nccc(-c3cnn4nc(-c5ccccc5)ccc34)n2)c1 | -1.25
COc1cc(Nc2ncc3c(C)nc(-c4cccc(C(F)(F)F)c4)n3n2)cc(OC)c1OC | 0.79
COc1cc(N2CCN(C(C)C)CC2)ccc1Nc1nc(Nc2ccc(F)cc2C(=O)NC[C@@H](O)CO)c2cc[nH]c2n1 | -0.71
N#Cc1ccc(Oc2nccc(-c3c(-c4ccc(F)cc4)ncn3C3CCNCC3)n2)cc1 | -0.69
O=C(Nc1n[nH]c2cc(-c3cc(F)ccc3F)ccc12)C1CC1 | 0.53
O=C1Nc2ccccc2/C1=C/Nc1ccc(-n2cncn2)cc1 | 2.75
CCc1ccc(Oc2nccc(-c3c(-c4ccc(F)cc4)ncn3C3CCNCC3)n2)cc1 | 7.59
C[C@@H](Oc1cc(-n2cnc3ccc(OC4CCN(C)CC4)cc32)sc1C(N)=O)c1ccccc1Cl | 2.78
COc1cccc(-n2cnc3c(N/N=C/c4ccncc4)ncnc32)c1 | -7.19
Nc1nccc(-c2c(-c3ccc(F)cc3)ncn2C2CCC(O)CC2)n1 (centres undefined) | 0.56
COc1ccc2cc(-c3c(-c4ccncc4)nc(-c4ccc([S+](C)[O-])cc4C)n3C)ccc2c1 (centres undefined) | -0.12
Fc1ccc(-c2ncn(C3CCNCC3)c2-c2ccnc(Oc3ccc(Oc4ccccc4)cc3)n2)cc1 | 6.98
CN(c1ccc(NC(=O)Nc2c(Cl)cccc2Cl)cc1)c1ccnc(Nc2cccc(CS(C)(=O)=O)c2)n1 | 6.14
O=C(Nc1n[nH]c2nc(-c3ccc(O)cc3)c(Br)cc12)C1CC1 | 7.1
NC(=O)c1ccc(Oc2nccc(-c3c(-c4ccc(F)cc4)ncn3C3CCNCC3)n2)cc1 | 5.23
CCC(=O)Nc1ccc(C)c(-c2ccc(C(=O)NCC3CC3)cc2)c1 | 2.39
COC(=O)Nc1nc2ccc(Sc3ccc(NC(=O)Nc4cc(C(F)(F)F)ccc4F)cc3)cc2[nH]1 | -1.07
Fc1ccc(-c2ncn(C3CCNCC3)c2-c2ccnc(Oc3ccc(F)c(F)c3)n2)cc1 | -3.39
